experimental details: compound effects on multiple myeloma cell viability – MM1S, calcein-AM fluorescence, 48 h, basal, profiling panel (AID 1165);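 note: viability of MM1S multiple myeloma cells under basal unstimulated conditions; test concentration not given here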
applied conditions: higher = more signal
measure name: z-score
API note: the answer field is a bare number with no unit suffix.

compound	z-score
O=C(O)[C@H]1C[C@H]2C(=O)N3CCC[C@H]3C(=O)N2[C@H]1c1ccc(O)cc1	-0.8
O=C(O)[C@H](Cc1ccccc1)n1cc(-c2ccccc2)nn1	0.269
C#CCN1[C@H](/C=C/C2CC2)[C@H](Cc2ccccc2)OC(=O)[C@@H]1Cc1ccccc1	-2.65
O=C1NC(=O)C2C1C=CC(C(O)C1CC=CCC1)N2Nc1ccccn1 (stereo not drawn)	0.0581
COC(=O)C(CC#Cc1ccc2c(c1)[C@]1(C(=O)N2)[C@H](c2ccc(O)cc2)N2[C@H](c3ccccc3)[C@H](c3ccccc3)OC(=O)[C@H]2[C@@H]1C(=O)N1CCN(c2ncccn2)CC1)C(=O)OC	-2.43
COC(=O)[C@]1(CCC(=O)OC(C)(C)C)N=C(c2ccc(OCCCO)cc2)O[C@@H]1c1ccccc1	-3.43

Entry CCCCC(O)C1C=CC2C(=O)N(C)C(=O)C2N1N1CCCCC1 (stereo not drawn) : reported z-score = ?
-0.73

Entry `COC(=O)[C@@]1(Cc2ccccc2)[C@H]2c3cc(C(=O)N4CCCC4)n(Cc4c(CO)[nH]cc(C)c4=O)c3C[C@H]2CN1C(=O)c1ccccc1` : reported z-score = ?
-0.662

====

experimental details: growth of efflux-deficient E. coli DRC39 – strain DRC39, OD650, 24 h, E. coli filamentation inducers, primary screen (AID 1178);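 note: growth measured as culture turbidity by optical density at 650 nm; test concentration not given here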
applied conditions: E. coli DRC39 acrAB, higher = more signal, called active from +8 up or from −8 down
measure name: z-score
API note: the answer field is a bare number with no unit suffix.

Known results for compounds:
compound	z-score
[N-]=[N+]=Nc1ccccc1C[C@]1(C(=O)NCc2ccccc2)N=C(c2ccc(OCCCO)cc2)O[C@H]1c1ccccc1N=[N+]=[N-]	-0.377
C#CCN1[C@@H](Cc2ccc(O)cc2)C(=O)O[C@H](Cc2ccccc2)[C@@H]1/C=C/C1CC1	0.75

Entry `C=CCN1C(=O)[C@]2(Cc3ccccc3)N=C(c3ccc(OCCCO)cc3)O[C@@H]2c2ccccc21` : reported z-score = ?
0.0733

Entry `CC(C)NC(=O)[C@@]1(Cc2ccccc2I)c2ccccc2C(=O)N(Cc2ccccc2Cl)[C@H]1c1ccc(CO)cc1` : reported z-score = ?
0.107

Entry `CCCNC(=O)[C@@]1(Sc2ccc(C)cc2)CC(=O)N(Cc2ccccc2C(F)(F)F)[C@@H]1c1ccc(CO)cc1I` : reported z-score = ?
0.044

Entry O=C(O)C1N=C(c2ccc(OCCCO)cc2)N(c2ccccc2)O1 (stereo unspecified) : reported z-score = ?
-0.351

====

assay system: Focal adhesion kinase 1 (Homo sapiens) (UniProt Q05397)
Sequence (Q05397 whole entry, looked up): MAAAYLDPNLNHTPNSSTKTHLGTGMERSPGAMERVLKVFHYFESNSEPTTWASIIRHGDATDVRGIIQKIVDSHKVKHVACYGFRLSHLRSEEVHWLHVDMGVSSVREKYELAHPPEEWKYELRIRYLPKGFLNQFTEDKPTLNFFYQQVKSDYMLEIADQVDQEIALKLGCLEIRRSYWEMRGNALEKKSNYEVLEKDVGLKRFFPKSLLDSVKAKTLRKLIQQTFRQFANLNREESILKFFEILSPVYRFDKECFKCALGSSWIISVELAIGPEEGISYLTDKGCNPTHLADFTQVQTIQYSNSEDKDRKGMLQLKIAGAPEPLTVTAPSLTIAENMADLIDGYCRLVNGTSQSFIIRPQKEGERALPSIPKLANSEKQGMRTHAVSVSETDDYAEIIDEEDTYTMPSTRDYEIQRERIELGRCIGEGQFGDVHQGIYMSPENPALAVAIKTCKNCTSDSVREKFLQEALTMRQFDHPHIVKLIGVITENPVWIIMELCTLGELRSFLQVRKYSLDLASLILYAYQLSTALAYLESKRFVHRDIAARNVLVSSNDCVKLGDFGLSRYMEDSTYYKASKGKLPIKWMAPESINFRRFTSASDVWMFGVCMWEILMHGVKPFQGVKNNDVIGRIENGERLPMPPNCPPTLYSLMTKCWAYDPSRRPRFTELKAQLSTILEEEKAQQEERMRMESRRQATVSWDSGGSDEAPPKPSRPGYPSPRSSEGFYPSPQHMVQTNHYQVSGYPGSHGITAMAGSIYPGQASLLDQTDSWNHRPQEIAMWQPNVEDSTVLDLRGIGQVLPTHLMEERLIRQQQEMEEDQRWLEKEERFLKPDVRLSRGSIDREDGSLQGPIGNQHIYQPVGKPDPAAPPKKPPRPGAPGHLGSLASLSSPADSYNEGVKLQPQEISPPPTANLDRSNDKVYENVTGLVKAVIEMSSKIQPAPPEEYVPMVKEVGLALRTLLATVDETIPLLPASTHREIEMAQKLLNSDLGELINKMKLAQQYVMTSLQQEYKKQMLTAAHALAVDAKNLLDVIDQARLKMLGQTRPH
experimental details: PTK2 protein binding on printed compound slides – biochemical, small-molecule microarray, 635/667 nm fluorescence, BSA, DTT, primary screen (AID 1130);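 note: composite of spot emission at 667 nm and signal to noise over triplicate slides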
applied conditions: 635 nm fluorescence, higher = more signal
Listing: composite z-score of selected compounds
API note: the answer field is a bare number with no unit suffix.

Known results for compounds:
compound	measure name	readout value
COc1ccc(C#Cc2ccc3c(c2)[C@]2(C(=O)N3)[C@H](c3ccc(O)cc3)N3[C@H](c4ccccc4)[C@H](c4ccccc4)OC(=O)[C@H]3[C@@H]2C(=O)N2CCc3cc(OC)c(OC)cc3C2)cc1	composite z-score	0.174
CCOC(=O)C[C@H]1[C@H](OC(=O)c2ccc(C(=O)c3ccccc3)cc2)[C@@H](NC(=O)c2ccccc2)c2cc(OCCCO)ccc2N1C(=O)c1ccccc1	composite z-score	0.775
O=C1OCCC=C[C@H]2OC34C=CCN(c5ccc(Cl)cc5)C(=O)[C@H]3N(CCCO)C(=O)[C@@H]4C12 (some centres undefined)	composite z-score	-0.22

Entry O=C1C2C=CC(C(O)c3cc(C(F)(F)F)cc(C(F)(F)F)c3)N(Nc3ccccc3)C2C(=O)N1c1ccccc1 (centres undefined) : reported composite z-score = ?
0.838

Source: PubChem BioAssay
